- target.or.system: T1, cynomolgus monkey IL-33 expressed with a C-terminal hexahistidine tag (cynomolgus monkey)
- T1 construct: also called MfIL-33-6His; Mf-IL-33-6His
- T1 chain: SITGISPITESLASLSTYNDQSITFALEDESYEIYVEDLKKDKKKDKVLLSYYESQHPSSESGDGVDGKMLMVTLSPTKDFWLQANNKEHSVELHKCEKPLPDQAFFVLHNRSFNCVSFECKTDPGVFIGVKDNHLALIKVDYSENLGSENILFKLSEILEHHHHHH
- assay.name: SPR 25C pH7.4, mAb captured
property: kon
Provide a numeric answer, followed by its unit.

{"columns": ["binder", "kon"],
 "data": [
  ["H4H9667P (antibody, human IgG4, V domains shown, Human IgG4 Fc (H4H)) VH: EVQLVESGGGLVQPGGSLRLSCAASGFTFSTYSMHWVRQAPGKGLEYVSTINNNGDTTYYADSVKGRFTISRDNSKNTLYLQLGSLRPEDMAVYYCARQTYTSSWYGGFDSWGQGTLVTVSS VL: DIQMTQSPSSVSASVGDRVTITCRASQGITSWLAWYQQKPGKAPKLLIYAASNLQSGVPSRFSGSGSGTDFTLTITSLQPEDFATYYCQQANSLPFTFGPGTKVDIK", "343000 M⁻¹ s⁻¹"],
  ["H1M9566N (antibody, mouse IgG1, V domains shown, Human variable domains, mouse IgG1 Fc (H1M)) VH: EVQLLESGGDLVQPGGSLRLSCAASGFTFSSYAMSWVRQAPGKGLEWVSVISGSGSSTDYADSVKGRFTISRDNSRDTLHLQMNSLRAEDTAVYYCAKTFYYFYGLDVWGQGTTVTVSS VL: DIQMTQSPSSLSASLRDRVTITCRASQGISNYLAWYQQKPGKVPKVLIYAASTLQSGVPSRFSGSGSGTVFTLTISSLQTEDVATYYCQKYSSAPFTFGPGTKVDIK", "293000 M⁻¹ s⁻¹"]
]}

Ask | What value of measured kon is listed for H4H9629P (antibody, human IgG4, V domains shown, Human IgG4 Fc (H4H)) VH: EVQLVESGGGLVQPGGSLRLSCAASGFTFRSFAMSWVRQAPGKGLELVSDLRTSGGSTYYADSVKGRLTISRDNSKNTLYLQMNSLRAEDTAVYYCAKSHYSTSWFGGFDYWGQGTLVTVSS VL: DIQMTQSPSSVSASVGDRVTITCRASQGFSSWLAWYQQKPGKAPKLLIYAASSLQSGVPSRFSGSGSGTDFTLTITNLQPEDFATYYCQQANSFPLTFGGGTKVEIK ?
Reply | 562000 M⁻¹ s⁻¹

Ask | // same read-out, input: H4H9665P (antibody, human IgG4, V domains shown, Human IgG4 Fc (H4H)) VH: EVQLVESGGGLVQPGGSLRLSCAASGFTFSNYAMTWVRQAPGKGLEWVSTISGSGDNTYYADSVQGRFTISRGHSKNTLYLQMNSLRAEDTAVYYCAKPTYSRSWYGAFDFWGQGTMVTVSS VL: DIQMTQSPSSVSASVGDRVTITCRASQGISSWLAWYQQKPGKAPQLLIYAASRLQSGVPSRFWGSGSGTDFTLTISSLQPEDFATYYCQQANNFPFTFGPGTKVDIK
Reply | 557000 M⁻¹ s⁻¹

Ask | H4H9666P (antibody, human IgG4, V domains shown, Human IgG4 Fc (H4H)) VH: QVQLVQSGAEVKKPGASVKVSCKASGYTFTSYGISWVRQAPGQGLEWMGWIRAYNGYTNYAQKFQGRVTMTTDTSTNTAYMELRTLNSDDTAVYYCARDRYSGSFHGNFDYWGQGTLVTVSS VL: DIQMTQSPSSVSASVGDRVTITCRASQGIFSWLAWYQQKPGKAPKVLIYAASNLESGVPSRFSGSGSGTDFTLTISSLQPEDFATYYCQQANSLPLTFGGGTKVEIK ?
Reply | 222000 M⁻¹ s⁻¹
